# methodSummary: Plasma concentration in CD1 mouse at 1 mg/kg, iv at 2 hrs
# Assay type: ADME, organism-based
# Parameters: dose 1 mg/kg, route intravenous
measurementKind: concentration at 2 h (nM)
API: value field is a number in nM; no unit string.

Incoming: Please look at this compound and report its concentration at 2 h: `CC(C)[C@@H](OC(=O)N1CCC1)[C@H]1C[C@@H](C)[C@H]2[C@H](O1)[C@H](O)[C@@]1(C)[C@@H]3CC[C@H]4C(C)(C)[C@@H](O[C@H]5CNCCO5)CC[C@@]45C[C@@]35CC[C@]21C`
Outgoing: 326

###

// reported concentration at 6 h for each item listed
# methodSummary: Drug uptake in CD1 mouse brain at 1 mg/kg, iv at 6 hrs
API: value field is a number in nM; no unit string.

Incoming: Please look at this compound and report its concentration at 6 h: `CCO[C@@H]([C@H]1C[C@@H](C)[C@H]2[C@H](O1)[C@H](O)[C@@]1(C)[C@@H]3CC[C@H]4C(C)(C)[C@@H](OC(=O)N5CCN(C)CC5)CC[C@@]45C[C@@]35CC[C@]21C)C(C)(C)O`
Outgoing: 12

Incoming: Please look at this compound and report its concentration at 6 h: `CCO[C@@H]([C@H]1C[C@@H](C)[C@H]2[C@H](O1)[C@H](O)[C@@]1(C)[C@@H]3CC[C@H]4C(C)(C)[C@@H](OC(=O)N5CCN(CCOC)CC5)CC[C@@]45C[C@@]35CC[C@]21C)C(C)(C)O`
Outgoing: 8

Incoming: Please look at this compound and report its concentration at 6 h: `CC(C)[C@@H](OC(=O)N1CCC1)[C@H]1C[C@@H](C)[C@H]2[C@H](O1)[C@H](O)[C@@]1(C)[C@@H]3CC[C@H]4C(C)(C)[C@@H](OC(=O)N(C)C5CN(C)C5)CC[C@@]45C[C@@]35CC[C@]21C`
Outgoing: 11

Incoming: Please look at this compound and report its concentration at 6 h: `CCO[C@@H]([C@H]1C[C@@H](C)[C@H]2[C@H](O1)[C@H](O)[C@@]1(C)[C@@H]3CC[C@H]4C(C)(C)[C@@H](O[C@H]5CN(CCOC)CCO5)CC[C@@]45C[C@@]35CC[C@]21C)C(C)(C)O`
Outgoing: 9

Incoming: Please look at this compound and report its concentration at 6 h: `CCO[C@@H]([C@H]1C[C@@H](C)[C@H]2[C@H](O1)[C@H](O)[C@@]1(C)[C@@H]3CC[C@H]4C(C)(C)[C@@H](O[C@H]5CN(C)CCO5)CC[C@@]45C[C@@]35CC[C@]21C)C(C)(C)O`
Outgoing: 16

Incoming: Please look at this compound and report its concentration at 6 h: `CC(C)[C@@H](OC(=O)N1CCC1)[C@H]1C[C@@H](C)[C@H]2[C@H](O1)[C@H](O)[C@@]1(C)[C@@H]3CC[C@H]4C(C)(C)[C@@H](OC(=O)N5CCN(C)CC5)CC[C@@]45C[C@@]35CC[C@]21C`
Outgoing: 14

Incoming: Please look at this compound and report its concentration at 6 h: `CCO[C@@H]([C@H]1C[C@@H](C)[C@H]2[C@H](O1)[C@H](O)[C@@]1(C)[C@@H]3CC[C@H]4C(C)(C)[C@@H](OC(=O)N(C)C5CN(C)C5)CC[C@@]45C[C@@]35CC[C@]21C)C(C)(C)O`
Outgoing: 56

Where these numbers come from: ChEMBL document CHEMBL2203235
